Target: full-length human PKCι (Homo sapiens, UniProt P41743)
Construct: Recombinant, full-length human PKCι expressed in Sf21 insect cells is also commercially available; purchased; host or cells: Sf21 insect cells
Experiment: PKCι IC50 IMAP fluorescence polarisation assay, full-length enzyme
Type: biochemical
Conditions: full length PKCi at 15 μM ATP; read-out: IC50 in IMAP assay against full length PKCi
OBSERVATION TYPE: IC50

compound="N[C@@H]1CCN(c2nc(-c3ccncc3)nc3ccsc23)C1 [compound 318]" assayed_system="full-length human PKCι (Homo sapiens, UniProt P41743)" experimental_result="10 to 40 µM"
compound="Cc1noc(C)c1-c1csc2c(NC[C@@H](N)Cc3ccccc3)nc(-c3ccncc3)nc12 [compound 392]" assayed_system="full-length human PKCι (Homo sapiens, UniProt P41743)" experimental_result="1 to 10 µM"
compound="CC[C@H](O)C#Cc1csc2c(NC[C@@H](N)Cc3ccccc3)nc(-c3ccncc3)nc12 [compound 521]" assayed_system="full-length human PKCι (Homo sapiens, UniProt P41743)" experimental_result="< 0.1 µM"
compound="NC(CNc1nc(-c2ccncc2F)nc2c(-c3ccncc3)csc12)Cc1ccccc1 (stereo in doubt) [compound 429]" assayed_system="full-length human PKCι (Homo sapiens, UniProt P41743)" experimental_result="1 to 10 µM"
compound="N[C@H](CNc1nc(-c2ccncc2)nc2c(Br)csc12)CC1CCCCC1 [compound 348]" assayed_system="full-length human PKCι (Homo sapiens, UniProt P41743)" experimental_result="0.1 to 1 µM"
compound="N[C@H](CNc1nc(-c2ccncc2)nc2c(C#CC3(O)CCC3)csc12)Cc1ccccc1 [compound 539]" assayed_system="full-length human PKCι (Homo sapiens, UniProt P41743)" experimental_result="< 0.1 µM"
compound="N[C@H](CNc1nc(-c2ccncc2)nc2ccsc12)Cc1ccccc1 [compound 314]" assayed_system="full-length human PKCι (Homo sapiens, UniProt P41743)" experimental_result="0.1 to 1 µM"
compound="Fc1c(-c2nc(N[C@@H]3CCNC3)c3sccc3n2)ccnc1Nc1cnccn1 [compound 585]" assayed_system="full-length human PKCι (Homo sapiens, UniProt P41743)" experimental_result="1 to 10 µM"
compound="CC(C)(C)c1sc2c(NC[C@@H](N)Cc3ccccc3)nc(-c3ccncc3)nc2c1-c1cn[nH]c1 [compound 437]" assayed_system="full-length human PKCι (Homo sapiens, UniProt P41743)" experimental_result="1 to 10 µM"
compound="CC(C)(C)[Si](C)(C)C#Cc1csc2c(NC[C@@H](N)Cc3ccccc3)nc(-c3ccncc3)nc12 [compound 399]" assayed_system="full-length human PKCι (Homo sapiens, UniProt P41743)" experimental_result="1 to 10 µM"
compound="C[C@H](N)CNc1nc(-c2ccncc2)nc2c(Br)csc12 [compound 305]" assayed_system="full-length human PKCι (Homo sapiens, UniProt P41743)" experimental_result="0.1 to 1 µM"
compound="NC(CNc1nc(-c2ccncc2F)nc2c(-c3cccc(CO)c3)csc12)Cc1ccccc1 (stereo in doubt) [compound 425]" assayed_system="full-length human PKCι (Homo sapiens, UniProt P41743)" experimental_result="1 to 10 µM"
compound="c1csc(-c2ccc(Nc3cc(-c4nc(N[C@@H]5CCNC5)c5sccc5n4)ccn3)cc2)c1 [compound 616]" assayed_system="full-length human PKCι (Homo sapiens, UniProt P41743)" experimental_result="0.1 to 1 µM"
compound="Cc1sc2c(NC[C@@H](N)Cc3ccccc3)nc(-c3ccncc3)nc2c1-c1ccn[nH]1 [compound 388]" assayed_system="full-length human PKCι (Homo sapiens, UniProt P41743)" experimental_result="< 0.1 µM"
compound="CN1CCN(c2ccc(C(=O)Nc3cc(-c4nc(N[C@@H]5CCNC5)c5sccc5n4)ccn3)cc2)CC1 [compound 620]" assayed_system="full-length human PKCι (Homo sapiens, UniProt P41743)" experimental_result="0.1 to 1 µM"
compound="Cc1noc(C)c1-c1csc2c(NCC(N)Cc3ccccc3)nc(-c3ccncc3F)nc12 (stereo in doubt) [compound 428]" assayed_system="full-length human PKCι (Homo sapiens, UniProt P41743)" experimental_result="1 to 10 µM"

###

IC50: recorded values
Biological target: full-length human PKCι (Homo sapiens)
Construct: Recombinant, full-length human PKCι expressed in Sf21 insect cells is also commercially available; purchased; host or cells: Sf21 insect cells
Assay: PKCι IC50 IMAP fluorescence polarisation assay, full-length enzyme
Assay type: biochemical
Details: full length PKCi at 15 μM ATP; read-out: IC50 in IMAP assay against full length PKCi
Experimental: Assays are based on the ability of PKCι to phosphorylate a commercially available peptide substrate in vitro. […] Recombinant, full-length human PKCι expressed in Sf21 insect cells is also commercially available. Recombinant, kinase-domain human PKCι is expressed and purified in-house. The procedure below explains how dose response curves for inhibitors of PKCι are obtained. Compounds to be tested are dissolved in 100% DMSO. […]
OBSERVATION TYPE: IC50

molecule="N[C@H](CNc1nc(-c2ccncc2)nc2c(C(=O)NC3CC3)csc12)Cc1ccccc1 [compound 556]" experimental_result="100 to 1000 nM"
molecule="CC(C)(C)c1sc2c(NCCN)nc(-c3ccncc3)nc2c1Br [compound 333]" experimental_result="10000 to 40000 nM"
molecule="N[C@H](CNc1nc(-c2ccncc2)nc2c(Nc3ncccn3)csc12)Cc1ccccc1 [compound 488]" experimental_result="100 to 1000 nM"
molecule="N[C@H](CNc1nc(-c2ccncc2)nc2c(-c3cccnc3)csc12)Cc1ccccc1 [compound 410]" experimental_result="1000 to 10000 nM"
molecule="COc1ccc(C(F)(F)F)cc1-c1c(C)sc2c(NC[C@@H](N)Cc3ccccc3)nc(-c3ccncc3)nc12 [compound 464]" experimental_result="10000 to 40000 nM"
molecule="Cc1sc2c(NC[C@@H](N)Cc3ccccc3)nc(-c3ccncc3)nc2c1-c1ccc(F)nc1 [compound 438]" experimental_result="1000 to 10000 nM"
molecule="Cc1sc2c(N[C@H]3CCNC3)nc(-c3ccncc3)nc2c1Br [compound 332]" experimental_result="1000 to 10000 nM"
molecule="NCc1coc(-c2csc3c(NC[C@@H](N)Cc4ccccc4)nc(-c4ccncc4F)nc23)c1 [compound 435]" experimental_result="1000 to 10000 nM"
molecule="N#Cc1csc2c(NC[C@@H](N)Cc3ccccc3)nc(-c3ccncc3)nc12 [compound 560]" experimental_result="< 100 nM"
molecule="N[C@H](CNc1nc(-c2ccncc2)nc2c(-c3cn[nH]n3)csc12)Cc1ccccc1 [compound 547]" experimental_result="< 100 nM"
molecule="c1cc(-c2nc(N[C@@H]3CCNC3)c3sccc3n2)ccn1 [compound 317]" experimental_result="1000 to 10000 nM"
molecule="O[C@@H](CNc1cc(-c2nc(N[C@@H]3CCNC3)c3sccc3n2)ccn1)c1ccccc1 [compound 593]" experimental_result="1000 to 10000 nM"
molecule="Cc1ncccc1-c1c(C)sc2c(NC[C@@H](N)Cc3ccccc3)nc(-c3ccncc3)nc12 [compound 459]" experimental_result="10000 to 40000 nM"
molecule="Cc1sc2c(NCCN)nc(-c3ccncc3)nc2c1C [compound 309]" experimental_result="1000 to 10000 nM"
molecule="Cc1ccccc1Nc1csc2c(N[C@@H]3CCNC3)nc(-c3ccncc3F)nc12 [compound 498]" experimental_result="1000 to 10000 nM"
molecule="N[C@H](CNc1nc(-c2ccncc2)nc2c(C#CC3CC3)csc12)Cc1ccccc1 [compound 512]" experimental_result="< 100 nM"
molecule="NCCNc1nc(-c2ccncc2)nc2c(Br)csc12 [compound 349]" experimental_result="100 to 1000 nM"

###

Biological target: kinase-domain human PKCι (Homo sapiens, UniProt P41743)
Construct: Recombinant, kinase-domain human PKCι is expressed and purified in-house; made in house
Sequence (P41743 254-522 limits assumed): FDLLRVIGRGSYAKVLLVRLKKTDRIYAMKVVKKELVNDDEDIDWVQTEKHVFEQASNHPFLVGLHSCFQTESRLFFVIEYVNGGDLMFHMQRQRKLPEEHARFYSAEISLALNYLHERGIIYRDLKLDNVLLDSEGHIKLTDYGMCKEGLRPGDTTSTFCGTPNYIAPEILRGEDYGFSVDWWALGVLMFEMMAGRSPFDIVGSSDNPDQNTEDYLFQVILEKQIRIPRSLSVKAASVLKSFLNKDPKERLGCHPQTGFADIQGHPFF
Assay: PKCι IC50 IMAP fluorescence polarisation assay, kinase-domain enzyme
Type: biochemical
Conditions: kinase domain PKCi at 2 μM ATP; read-out: IC50 in IMAP assay against kinase domain PKCi
OBSERVATION TYPE: IC50

compound="c1cnc2sc3c(N4CCNCC4)nc(-c4ccncc4)nc3c2c1 [compound 376]" experimental_result="10 to 40 µM"
compound="Cc1csc2c(N[C@@H]3CCNC3)nc(-c3ccncc3)nc12 [compound 312]" experimental_result="1 to 10 µM"
compound="C[C@@H](N)CNc1nc(-c2ccncc2)nc2cc(C(C)(C)C)sc12 [compound 308]" experimental_result="10 to 40 µM"
compound="Clc1cccc2sc3c(N4CCCNCC4)nc(-c4ccncc4)nc3c12 [compound 371]" experimental_result="0.1 to 1 µM"

Where these numbers come from: patent US10183950B2
